- Test system: 786-0
- measurement_notes: Growth inhibition of human 786-0 cells at 10 uM after 48 hrs by sulforhodamine B assay
- Assay type: functional
- run_parameters: 786-0, 48 h, values are per cent of control
Give measured growth, % of control at 10 µM for each item. Keep answers brief.
Answers are plain numbers, in %.

[3H]C([3H])([3H])N1C(=O)[C@@]2(c3ccccc31)N(C)C[C@@H](c1cccs1)[C@@]21Cc2ccccc2C1=O | 106
[3H]C([3H])([3H])N1C(=O)[C@@]2(c3ccccc31)N(C)C[C@@H](c1ccc(OC)cc1)[C@@]21Cc2ccccc2C1=O | 88
[3H]N1C(=O)[C@@]2(c3ccccc31)N(C)C[C@@H](c1ccc(Cl)cc1)[C@@]21Cc2ccccc2C1=O | 88.9
[3H]N1C(=O)[C@@]2(c3ccccc31)N(C)C[C@@H](c1ccc(OC)cc1)[C@@]21Cc2ccccc2C1=O | 102
[3H]C([3H])([3H])N1C(=O)[C@@]2(c3ccccc31)N(C)C[C@@H](c1ccc(Cl)cc1)[C@@]21Cc2ccccc2C1=O | 86.2

Task: If you can, please state the reported growth, % of control at 10 µM value of [3H]N1C(=O)[C@@]2(c3ccccc31)N(C)C[C@@H](c1cccs1)[C@@]21Cc2ccccc2C1=O .
Result: 111
